target: Protein farnesyltransferase (Mus musculus, UniProt Q61239+Q8K2I1); experiment: Inhibition of mammalian H-Ras processing in NIH 3T3 cells
MEASURED_ATTRIBUTE: IC50

Below, 3 compounds whose answers are already recorded.
CC(C)NC(=O)c1ccc(NCc2cncn2Cc2ccc(C#N)cc2)cc1-c1ccccc1 : > 100 µM
CSCC[C@H](NC(=O)c1ccc(NCc2cncn2Cc2ccc(C#N)cc2)cc1-c1ccccc1)C(=O)O : 5 µM
CSCC[C@H](NC(=O)c1ccc(NCc2cncn2Cc2ccc(-c3ccccc3)cc2)cc1-c1ccccc1)C(=O)O : > 100 µM

Which IC50 reading was recorded for the compound CSCC[C@H](NC(=O)c1ccc(NCc2cn(Cc3ccc(-c4ccccc4)cc3)cn2)cc1-c1ccccc1)C(=O)O ? > 100 µM
